B1: NETO1 (parent)
chain: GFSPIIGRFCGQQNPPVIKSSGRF

Variants of: B1
Assay: protein stability index of a GFP-peptide fusion (GPS, HEK-293T) (PSI 1-6); higher = more stable;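 note: lentivirally expressed fusions sorted by FACS into six bins by GFP to DsRed ratio, PSI derived from sequencing read proportions per bin multiplied by bin number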
Conditions: c terminus: a fixed tail appended
Everything with protein stability index lower than 2 is F; everything else, including exactly 2, is T.

{"columns": ["SEQ_STRING", "CATEGORY"],
 "data": [
  ["GFSPIIGDFCGQQNPPVIKSSGRF", "T"],
  ["GFSPIIGRFCGQQNPPMIKSSGRF", "T"],
  ["GWSPIIGRFCGQQNPPVIKSSGRF", "F"],
  ["GFSPIIGRRCGQQNPPVIKSSGRF", "T"],
  ["GFSPIIGRFCGQLNPPVIKSSGRF", "T"],
  ["GFSPIIGRFCGQQNYPVIKSSGRF", "T"],
  ["GFSPIIGRFCGQQNPPVIKESGRF", "T"],
  ["GFSPIIGRFCGQANPPVIKSSGRF", "F"],
  ["GFSPIIGQFCGQQNPPVIKSSGRF", "T"],
  ["GFSPIIGRFCGQQNPPVIKSSGRR", "T"],
  ["GFSPIIGRFCGQQNPPVIKSVGRF", "T"],
  ["GFSPIIGRFCGQQNPPVIKSSGRL", "T"],
  ["GFSPIIGRFCGQQNPPVIKSSGKF", "T"],
  ["GFSPIIGRFCGQCNPPVIKSSGRF", "F"],
  ["GFSPIIGRFCGQQNPVVIKSSGRF", "T"],
  ["GFSPIIGMFCGQQNPPVIKSSGRF", "F"],
  ["GFSPIIGRFCGQQIPPVIKSSGRF", "F"],
  ["GFSPIIGRFCGQQNPPVIKSSGSF", "F"],
  ["GFSPIIGRFCGQQNPPGIKSSGRF", "T"],
  ["GFSPIIGRFQGQQNPPVIKSSGRF", "T"],
  ["GFSPIIGRFCGQQNFPVIKSSGRF", "T"],
  ["GFSPIIGRFNGQQNPPVIKSSGRF", "T"],
  ["GFSPIIGRFCGQQNPPVIKSSLRF", "T"],
  ["YFSPIIGRFCGQQNPPVIKSSGRF", "F"],
  ["GFSPIIGGFCGQQNPPVIKSSGRF", "T"],
  ["GFSPIIGRFCGQQNPTVIKSSGRF", "T"],
  ["GFSPIIGRFCWQQNPPVIKSSGRF", "T"],
  ["GFSPIIGRFCGQQNPPEIKSSGRF", "T"],
  ["GFSPIIGRFCGHQNPPVIKSSGRF", "T"],
  ["GFSPIIGRFCGQQDPPVIKSSGRF", "T"],
  ["GFGPIIGRFCGQQNPPVIKSSGRF", "T"],
  ["GFSPIIGRFCGQQNPPVIKMSGRF", "F"],
  ["GFSPIIGRFCGQQNPPVNKSSGRF", "T"],
  ["GFSPIIGRFCGQQNPPVIKSSNRF", "T"],
  ["GFSQIIGRFCGQQNPPVIKSSGRF", "F"],
  ["GFSPIIGTFCGQQNPPVIKSSGRF", "T"],
  ["GFSPIIGRFCGQQNPPVIKSSARF", "F"],
  ["GFSPIIGRFCGQQNPPVVKSSGRF", "T"],
  ["GFSPIIGRFCGQQNPPVIKSSQRF", "T"],
  ["GFSPIIGRFCGQQNPPVIKRSGRF", "T"],
  ["GFSPIIYRFCGQQNPPVIKSSGRF", "F"],
  ["GFSPIIGRFCGQQNPPVIKNSGRF", "T"],
  ["GFSPIIGRFCGQQNPPVIKSSGRH", "T"],
  ["GFSPIIGRFCGQQNPPVIKVSGRF", "F"],
  ["GFSPIIGRFCGQQNPPVIKSWGRF", "F"],
  ["GFSPIIGRFCGQQNPPVIKSSGCF", "F"],
  ["GFCPIIGRFCGQQNPPVIKSSGRF", "F"],
  ["GFSPIIGRFCGQQNPPVIKSQGRF", "T"],
  ["GFSPIIGRFCGQQNPQVIKSSGRF", "F"],
  ["GFSPIIGRFCGQQNPPWIKSSGRF", "T"],
  ["GFSPIIGRFCGQQNPPVIMSSGRF", "T"],
  ["GFSPGIGRFCGQQNPPVIKSSGRF", "T"],
  ["GFSPIIGRFCEQQNPPVIKSSGRF", "T"],
  ["GFSPIIGRFCGQQNPPVIKSEGRF", "T"],
  ["GFSPIIGRFCGQTNPPVIKSSGRF", "T"],
  ["GFSPIIGRFCGTQNPPVIKSSGRF", "T"],
  ["GFSPIIGRFCIQQNPPVIKSSGRF", "F"],
  ["GRSPIIGRFCGQQNPPVIKSSGRF", "T"],
  ["GFSPIIGRFCGQQNPPVIKSSGYF", "T"],
  ["GFSPIIGRFCDQQNPPVIKSSGRF", "T"],
  ["LFSPIIGRFCGQQNPPVIKSSGRF", "T"],
  ["GFSDIIGRFCGQQNPPVIKSSGRF", "F"],
  ["GESPIIGRFCGQQNPPVIKSSGRF", "T"],
  ["GFSPIIGRFCGQQNPPVIKSSGRS", "T"],
  ["GFSPIIGRFCGQQNRPVIKSSGRF", "F"],
  ["GFSPIIGRFCGQQNPPVGKSSGRF", "T"],
  ["GFSPIIGRFIGQQNPPVIKSSGRF", "T"],
  ["GFSPIIGRFCGQQHPPVIKSSGRF", "T"],
  ["GFSPIIGRFCGQQNPPIIKSSGRF", "T"],
  ["GFSPIIGRFCGQQSPPVIKSSGRF", "T"],
  ["GFSPIIGRFCGQENPPVIKSSGRF", "T"],
  ["GFSPIIGRFCCQQNPPVIKSSGRF", "F"],
  ["GFSPIIGRFCGQQNGPVIKSSGRF", "T"],
  ["CFSPIIGRFCGQQNPPVIKSSGRF", "F"]
]}
